Data origin: ChEMBL document CHEMBL1201862

# Test system: NCI-H23
# procedure.details: NCI tumour cell line growth inhibition, 48 h
Active and inactive are the calls of the source. No stated cut-off is given here; in the data, active = GI50 up to about 1.1 µM and inactive = higher. Residues, ends and D or L forms follow the SMILES beside them. *: point of attachment. Boc = CC(C)(C)OC(=O)*; Bz = O=C(c1ccccc1)*
measurement.label: GI50

Query :: Please give measured GI50 of the following entry: CCOC(=O)[C@@]12C[C@](/C=C/OC)(O[Si](C)(C)C)[C@@]13c1cc(OC)c(OC)cc1CCN3C(=O)C2=O
Result :: > 100 µM (inactive)

Query :: Please give measured GI50 of the following entry: Cc1nc(C)c(C(=O)NNC(=O)c2ccccc2)cc1C(=O)NNC(=O)c1ccccc1
Result :: > 100 µM (inactive)

Query :: Please give measured GI50 of the following entry: Brc1ccc2c([C@H]3CN[C@@H](c4c[nH]c5cc(Br)ccc45)CN3)c[nH]c2c1
Result :: 2.54 µM (inactive)

Query :: Please give measured GI50 of the following entry: Cc1ccc(C2=Nn3c(nc4sc(C)c(C)c4c3=O)SC2)cc1
Result :: > 100 µM (inactive)

Query :: Please give measured GI50 of the following entry: COc1ccc2c(c1)CC[C@@H]1[C@@H]2CC[C@]2(C)/C(=N/OCCN3CCCC3)CC[C@@H]12
Result :: 5.94 µM (inactive)

Query :: Please give measured GI50 of the following entry: CC(NC(=O)C(Cc1ccc(OC(=O)c2ccccc2)cc1)NC(=O)OC(C)(C)C)C(=O)NC(Cc1ccccc1)C(=O)NCC(N)=O (configuration not stated) (Boc-Y(Bz)AFG-NH2; configuration not given here)
Result :: 23.2 µM (inactive)

Query :: Please give measured GI50 of the following entry: COc1ccc(/C=C2\CN(C)Cc3c2nc(N)nc3-c2ccc(OC)cc2)cc1
Result :: > 100 µM (inactive)

Query :: Please give measured GI50 of the following entry: CCN(CC)c1ccc(/C=C/c2ccnc3ccccc23)cc1
Result :: > 100 µM (inactive)

Query :: Please give measured GI50 of the following entry: CC1CN1C(=O)NCCCCCCNC(=O)N1CC1C (configuration not stated)
Result :: 27.3 µM (inactive)

Query :: Please give measured GI50 of the following entry: Cc1ccc([N+](=O)[O-])cc1S(=O)(=O)Nc1ccc(C2=NOC(c3ccccc3)C2)cc1 (configuration not stated)
Result :: 14.5 µM (inactive)

Others:
Query :: Please give measured GI50 of the following entry: COC(=O)c1ccccc1CC1Cc2ccc3c(c2C1=O)CCC3 (configuration not stated)
Result :: 39.6 µM (inactive)

Query :: Please give measured GI50 of the following entry: CCOC(=O)C1(C/C=C\CBr)CCCCCCCCCCC1=O (configuration not stated)
Result :: 11.9 µM (inactive)

Query :: Please give measured GI50 of the following entry: CNC(=S)N(C)C(=S)Nn1c(=O)c(C)nn(C)c1=S
Result :: > 100 µM (inactive)

Query :: Please give measured GI50 of the following entry: CCC1=C(c2ccc(OC)cc2)CC[C@]2(CCNC2=O)[C@@H]1C
Result :: 37.4 µM (inactive)

Query :: Please give measured GI50 of the following entry: C=C1CC2CCCC12C=O (configuration not stated)
Result :: > 10 µM (inactive)

Query :: Please give measured GI50 of the following entry: CCC/C=C/c1cc2c(cc1O)CC[C@@H]1[C@@H]2CC[C@]2(C)[C@@H](O)CC[C@@H]12
Result :: 17.5 µM (inactive)

Query :: Please give measured GI50 of the following entry: C/C(=N\NS(=O)(=O)c1ccc([N+](=O)[O-])cc1)c1ccc[n+]([O-])n1
Result :: 1.7 µM (inactive)

Query :: Please give measured GI50 of the following entry: C1CN(c2nc3c(nnc4nc(N5CCOCC5)sc43)s2)CCO1
Result :: > 100 µM (inactive)

* * *

# System: A498
# procedure.details: NCI tumour cell line growth inhibition, 48 h
Calls of active or inactive are those of the source. No stated cut-off is given here; in the data, active = GI50 up to about 1.1 µM and inactive = higher.
Pick one and only one: active, inactive

Solved cases (6 shown):
Query :: Recorded call for Oc1ccc2ccccc2c1Cc1c(O)ccc2ccccc12 ?
Result :: inactive

Query :: Recorded call for CC(C)(C)OC(=O)CN1CCNCCN(CC(=O)OC(C)(C)C)CCNCC1 ?
Result :: inactive

Query :: Recorded call for C#Cc1ccccc1C(=O)OC ?
Result :: inactive

Query :: Recorded call for O=C1/C(=C/c2cccc([N+](=O)[O-])c2)N=C(c2ccccc2)N1c1nc2ccc(Sc3ccccc3)cc2[nH]1 ?
Result :: inactive

Query :: Recorded call for NC(=O)N1N=C2c3ccccc3CC[C@@H]2C1c1ccccc1 (some centres undefined) ?
Result :: inactive

Query :: Recorded call for CCN1C(=O)N2C(OC)c3ccccc3C(Br)C2(OC)C1=O (centres undefined) ?
Result :: inactive

Others:
Query :: Recorded call for COc1ccc2c(c1)C1OCCNC1CC2 (centres undefined) ?
Result :: inactive

Query :: Recorded call for CN(C)CCN(C)CC1COC(C)(C)O1 (centres undefined) ?
Result :: inactive

Query :: Recorded call for COC1CC(C)(N)C(O)C(C)O1 (centres undefined) ?
Result :: inactive

Query :: Recorded call for CCSC(=O)N1c2ccc(OC)cc2C=CC1C#N (centres undefined) ?
Result :: active

* * *

# Test system: OVCAR-5
# procedure.details: NCI tumour cell line growth inhibition, 48 h
Active and inactive are the calls of the source. Rule as the data show it: active = GI50 up to about 1.1 µM and inactive = higher. Where a SMILES comes first, the peptide text is derived from it. The star is where a group is joined. Boc = CC(C)(C)OC(=O)*
Listing of recorded GI50 by entry.

Example entries and their recorded answers appear below.
Query :: Please give measured GI50 of the following entry: COC(=O)C(Cc1ccc(OC)cc1O)NC(=O)OC(C)(C)C (stereo not given)
Result :: > 100 µM (inactive)

Query :: Please give measured GI50 of the following entry: COC1/C=C/O[C@@]2(C)Oc3c(C)c(O)c4c(O)c(cc(O)c4c3C2=O)NC(=O)/C(C)=C\C=C\[C@H](C)C(O)[C@@H](C)[C@@H](O)[C@@H](C)[C@H](OC(C)=O)[C@@H]1C (stereo not given in full)
Result :: 38.5 µM (inactive)

Query :: Please give measured GI50 of the following entry: COc1cc(Br)c(CC2NCCc3cc(OC)c(OC)cc32)cc1OC (stereo not given)
Result :: 40.9 µM (inactive)

Query :: Please give measured GI50 of the following entry: N#Cc1cccc(C2ON=C(c3ccc([N+](=O)[O-])cc3)N2C23CC4CC(CC(C4)C2)C3)c1 (stereo not given)
Result :: 3.21 µM (inactive)

Query :: Please give measured GI50 of the following entry: COc1ccc(/C(CC2OC(=O)c3ccccc32)=N\NC(=O)C[N+](C)(C)C)cc1 (stereo not given)
Result :: > 100 µM (inactive)

Query :: Please give measured GI50 of the following entry: CC(NC(=O)C1CCCN1C(=O)CNC(=O)OC(C)(C)C)C(=O)O (stereo not drawn) (Boc-Gly-Pro-Ala-OH; configuration not given here)
Result :: > 100 µM (inactive)

Others:
Query :: Please give measured GI50 of the following entry: CC(C)/C=C1\CCC(CN2CCOCC2)C1=O (stereo not given)
Result :: 22.5 µM (inactive)

Query :: Please give measured GI50 of the following entry: O=C(c1ccccc1)c1nnn(Cc2cccc(Cl)c2)c1C(=O)c1ccccc1
Result :: > 100 µM (inactive)

Query :: Please give measured GI50 of the following entry: C[O+]=C1C=CC(=C2SC(c3ccccc3)(c3ccccc3)c3ccccc32)C=C1.[O-][Cl+3]([O-])([O-])[O-]
Result :: 19.5 µM (inactive)

Query :: Please give measured GI50 of the following entry: COc1ccc(OC)c(C2CCc3nc4nc(N)nc(N)c4cc3C2)c1 (stereo not given)
Result :: 9.35 µM (inactive)

* * *

Listing of recorded GI50 by entry.
# System: NCI-H460
# procedure.details: NCI tumour cell line growth inhibition, 48 h
The source made the active and inactive calls. Cut-off read from the data, not from the text of the source: active = GI50 up to about 1.1 µM and inactive = higher.

Query :: Please give measured GI50 of the following entry: Cn1c2c3ccc(Cl)cc3nc-2c(Cl)c2ccccc21
Result :: 12.7 µM (inactive)

Query :: Please give measured GI50 of the following entry: COc1cc(C2c3cc4c(cc3[C@@H](NCCN(C)C)C3COC(=O)[C@H]23)OCO4)cc(OC)c1O (stereo not given in full)
Result :: < 0.01 µM (active)

Query :: Please give measured GI50 of the following entry: COc1ccc(-c2oc3cc(OC)ccc3c(=O)c2O)cc1
Result :: 3.37 µM (inactive)

Query :: Please give measured GI50 of the following entry: CC(Oc1ccccc1)C(=O)NNC(=O)OC(C)(C)C (stereo not given)
Result :: > 100 µM (inactive)

Others:
Query :: Please give measured GI50 of the following entry: N#Cc1cnc(-n2[nH]c3c(c2=O)CCCC3)[nH]c1=O
Result :: 36.5 µM (inactive)

Query :: Please give measured GI50 of the following entry: O=S(=O)(c1ccccc1)C1CN2OC1(S(=O)(=O)c1ccccc1)CC2c1ccc(Br)cc1 (stereo not given)
Result :: > 100 µM (inactive)

Query :: Please give measured GI50 of the following entry: CNC(=O)/C=C/C1=CN2C(=O)c3ccc(C)c(O)c3NC(OC)C2C1 (stereo not given)
Result :: 0.0135 µM (active)
